Tested on: murine macrophages (J774.1A)
Experiment: Cytotoxicity, MTS assay
Conditions: 24 h
Quantity name: EC50 (µM)
Numeric only. Scale: µM

CC[C@@H](C)[C@@H](NC(=O)[C@@H](CCCNC(=N)N)NC(=O)[C@@H](CCCNC(=N)N)NC(=O)[C@@H](CC(C)C)NC(=O)[C@@H](Cc1c[nH]c2ccccc12)NC(=O)[C@@H](C)NC(=O)[C@@H](CCCCN)NC(=O)[C@H](NC(=O)[C@@H](CCCNC(=N)N)NC(=O)[C@@H](CCCNC(=N)N)NC(=O)[C@@H](CC(C)C)NC(=O)[C@H](N)Cc1c[nH]c2ccccc12)[C@H](C)CC)C(=O)N[C@H](CCCCN)C(=O)N[C@H](C)C(N)=O ... 64

// next item, EC50 requested
Which measured EC50 value corresponds to CC[C@H](C)[C@H](NC(=O)[C@H](CCCNC(=N)N)NC(=O)[C@H](CCCNC(=N)N)NC(=O)[C@H](CC(C)C)NC(=O)[C@H](Cc1c[nH]c2ccccc12)NC(=O)[C@H](C)NC(=O)[C@H](CCCCN)NC(=O)[C@@H](NC(=O)[C@H](CCCNC(=N)N)NC(=O)[C@H](CCCNC(=N)N)NC(=O)[C@H](CC(C)C)NC(=O)[C@@H](N)Cc1c[nH]c2ccccc12)[C@@H](C)CC)C(=O)N[C@@H](CCCCN)C(=O)N[C@@H](C)C(=O)O ?
64
